Molecular target: COX-2 (Homo sapiens)
Construct: purchased Beyotime S0168
Sequence (P35354 18-604): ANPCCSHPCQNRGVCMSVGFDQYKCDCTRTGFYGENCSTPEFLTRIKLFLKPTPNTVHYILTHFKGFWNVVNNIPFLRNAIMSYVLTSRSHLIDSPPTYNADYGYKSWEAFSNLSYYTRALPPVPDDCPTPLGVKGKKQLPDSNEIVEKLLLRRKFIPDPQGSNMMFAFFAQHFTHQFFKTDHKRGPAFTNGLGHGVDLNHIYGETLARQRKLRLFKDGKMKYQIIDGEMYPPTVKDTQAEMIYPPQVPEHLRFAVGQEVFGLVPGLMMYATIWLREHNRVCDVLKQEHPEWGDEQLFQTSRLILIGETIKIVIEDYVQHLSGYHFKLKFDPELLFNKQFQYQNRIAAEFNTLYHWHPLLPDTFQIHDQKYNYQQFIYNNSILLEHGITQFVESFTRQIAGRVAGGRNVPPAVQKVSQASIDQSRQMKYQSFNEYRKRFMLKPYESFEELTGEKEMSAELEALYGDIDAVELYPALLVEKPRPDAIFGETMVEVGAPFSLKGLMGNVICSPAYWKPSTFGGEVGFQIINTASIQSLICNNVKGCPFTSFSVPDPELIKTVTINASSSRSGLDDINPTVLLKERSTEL
Experiment: Anti-COX-2 assay (COX-2 Inhibitor Screening Kit)
Type: biochemical
Settings: 3.125 μM, single replicates
Item-by-item account of inhibition at 3.125 µM
Assay metric: inhibition at 3.125 µM (%)

1) O=c1c(OC2OC(CO)C(O)C(O)C2OC2OC(CO)C(O)C(O)C2O)c(-c2ccc(O)c(O)c2)oc2cc(O)cc(O)c12 (centres unmarked) [compound 16, Quercetin-3-O-sophoroside] | 18.7
2) O=c1cc(-c2ccc(O)c(O)c2)oc2cc(O)c(C3OC(CO)C(O)C(O)C3O)c(O)c12 [compound 18, Luteolin-6-C-β-D-glucoside] | 16.9
3) O=c1cc(-c2ccc(O)c(O)c2)oc2c(C3OCC(O)C(O)C3O)c(O)c(C3OC(CO)C(O)C(O)C3O)c(O)c12 (centres unmarked) | 14.6
4) O=C(O)CC(=O)OCC1OC(Oc2c(-c3ccc(O)c(O)c3)oc3cc(O)cc(O)c3c2=O)C(O)C(O)C1O (centres unmarked) [compound 27, Quercetin 3-O-(6″-malonyl-glucoside)] | 24.6
5) C[C@@H]1O[C@@H](OC[C@H]2O[C@@H](Oc3c(-c4ccc(O)c(O)c4)oc4cc(O)cc(O)c4c3=O)[C@H](O)[C@@H](O)[C@@H]2O)[C@H](O)[C@H](O)[C@H]1O | 23.1

---

target: COX-2 (Homo sapiens, UniProt P35354); construct: purchased Beyotime S0168; assay: Anti-COX-2 assay (COX-2 Inhibitor Screening Kit); assay type: biochemical; conditions: 25 μM, single replicates
Assay metric: inhibition at 25 µM (%)

1. O=C(O)CC(=O)OCC1OC(Oc2c(-c3ccc(O)c(O)c3)oc3cc(O)cc(O)c3c2=O)C(O)C(O)C1O (stereo not drawn) [compound 27, Quercetin 3-O-(6″-malonyl-glucoside)] | 71.8
2. O=c1c(OC2OC(CO)C(O)C(O)C2OC2OC(CO)C(O)C(O)C2O)c(-c2ccc(O)c(O)c2)oc2cc(O)cc(O)c12 (stereo not drawn) [compound 16, Quercetin-3-O-sophoroside] | 73.7
3. O=c1c(O[C@@H]2O[C@H](CO)[C@@H](O)[C@H](O)[C@H]2O)c(-c2ccc(O)c(O)c2)oc2cc(O)cc(O)c12 [compound 25, Isoquercitrin] | 67.1

Each recorded value in this set is attributed to paper PMC10064984.
